# Assay Protocol: qHTS assay to identify small molecule antagonists of the estrogen related receptor signaling pathway with the pleiotropic PPARgamma coactivator (PGC) from Tox21 10K library (AID 1224841); also: actives are mostly falling curves and most rising ones were filed inactive; nearly all actives have a fitted effect of over 50% in size
# Experimental Conditions: PGC/ERR reporter cell line, ONE-Glo luciferase, 18 h; series mostly up to 92.4 µM
Records with an inconclusive call do not appear. Active and inactive are the calls of the source. No rule for the calls is given here.
Reply using exactly one outcome from active, inactive

Illustrative cases are given below, each with its answer.
O=[N+]([O-])c1ccc(Oc2ccc(Cl)cc2Cl)cc1 | inactive
CC(C)(C)C(O)(CCc1ccc(Cl)cc1)Cn1cncn1 (configuration not stated) | active
COC(=O)c1ccccc1N | inactive

Exam item: Recorded test outcome, item CC(C)N1C(=O)c2ccccc2NS1(=O)=O
Marked response: inactive

Exam item: Would you mind telling me which call this test gave CC(=O)C=C(C)C ?
Marked response: inactive

Exam item: So what was the verdict on CN1C(=O)CN=C(c2ccccc2)c2cc(Cl)ccc21 in this test?
Marked response: inactive

Exam item: What is the recorded call for this molecule in the test? CC(C)C1(C)N=C(c2nc3ccccc3cc2C(=O)O)NC1=O (configuration not stated)
Marked response: inactive

----------
# Target Of Assay: Cytochrome P450 2C9 (Homo sapiens)
# Assay Protocol: Cytochrome P450 Family 2 Subfamily C Member 9 (CYP2C9) small molecule antagonists: luciferase reporter qHTS assay (AID 1671198); also: nearly all actives have a fitted effect of over 50% in size
# Experimental Conditions: P450-Glo CYP2C9 enzyme assay, luciferin luminescence; series mostly up to 115 µM
Records with an inconclusive call do not appear. Active and inactive are the calls of the source. Calls come from the whole dose curve; as a rule, active = well fitted inhibition curve with a large enough effect in the repeat runs; inconclusive = weak or mixed curves; inactive = no such curve, though single readings can be large or run the other way.
Select the matching outcome among active, inactive

Below are worked cases with known answers.
Nc1ccccc1C(=O)O | inactive
c1ccc(OP(Oc2ccccc2)Oc2ccccc2)cc1 | inactive
CC(Br)C(=O)O (stereo unspecified) | active

Exam item: State the result this test recorded for Cc1ccc([N+](=O)[O-])cc1C .
Marked response: inactive

Exam item: Record lookup: outcome of this test for COC(=O)NC(=S)Nc1ccccc1NC(=S)NC(=O)OC ?
Marked response: active

Exam item: In this assay, the call recorded for COC(=O)c1ccccc1C(=O)OC was what?
Marked response: inactive

----------
# Assay Protocol: qHTS assay to identify small molecule agonists of the NFkB signaling pathway (AID 1159509)
# Experimental Conditions: NFkB-bla ME-180 cells, beta-lactamase FRET ratio, 5 h; series mostly up to 61 µM
Records with an inconclusive call do not appear. The source made the active and inactive calls. Calls come from the whole dose curve; as a rule, active = well fitted curve in the direction sought with a large enough effect in the signal ratio in the repeat runs (not every such curve was filed as active); inconclusive = weak or mixed curves, or a change in a side signal; inactive = no such curve, though single readings can be large or run the other way; the % refers to the signal ratio.
Readout Kind: outcome

CCCCOC(=O)c1ccccc1C(=O)OCCCC | inactive
Nc1ccccc1C(=O)O | inactive
CCCCN(CCCC)SN(C)C(=O)Oc1cccc2c1OC(C)(C)C2 | inactive

----------
# Assay Protocol: qHTS assay for small molecule agonists of the p53 signaling pathway - cell viability (AID 651633);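 also: p53RE-bla HCT reporter cells with a stable beta-lactamase p53 reporter; nearly all actives have a fitted effect of over 30% in size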
# Experimental Conditions: p53RE-bla HCT-116 viability, ATP luminescence, 16 h; series mostly up to 83.3 µM
Records with an inconclusive call do not appear. Activity calls are given as the source filed them. Calls come from the whole dose curve.
Readout Kind: outcome

CC(C#N)CCC#N (stereo not drawn) | inactive
COCCl | inactive
CCC12COCN1COC2 | inactive

----------
# Assay Protocol: qHTS assay to identify small molecule antagonists of the glucocorticoid receptor (GR) signaling pathway - cell viability counter screen (AID 720693); also: nearly all actives have a fitted effect of over 55% in size
# Experimental Conditions: GR-bla HeLa viability, CellTiter-Glo luminescence, 18 h, with 5 nM dexamethasone present; series mostly up to 58.5 µM
Results filed as inconclusive are left out. The source made the active and inactive calls. Calls come from the whole dose curve; as a rule, active = well fitted cell-killing curve with a large enough effect in the repeat runs; inconclusive = weak or mixed curves, or effect the other way; inactive = no such curve, though single readings can be large or run the other way.
Readout Kind: outcome

Use these answered entries as a reference point.
CCC[N+](=O)[O-] | inactive
Clc1cccc(Cl)c1Cl | inactive
Nc1c(Cl)c(Cl)nc(C(=O)O)c1Cl | inactive
Cc1cccc([N+](=O)[O-])c1 | inactive
CC(Oc1ccc(Cl)cc1Cl)C(=O)O (stereo unspecified) | inactive

Exam item: Fill in the blank: the reported outcome of Cc1cc(Cl)ccc1O is ____.
Marked response: inactive

Exam item: Report outcome for CC(C#N)CCC#N (stereo unspecified) please.
Marked response: inactive

Exam item: # outcome lookup, item CC(C)C1(C)N=C(c2nc3ccccc3cc2C(=O)O)NC1=O (stereo unspecified)
Marked response: inactive

----------
# Target Of Assay: Estrogen receptor beta (Homo sapiens) (UniProt Q92731)
# Sequence (Q92731 whole entry, looked up): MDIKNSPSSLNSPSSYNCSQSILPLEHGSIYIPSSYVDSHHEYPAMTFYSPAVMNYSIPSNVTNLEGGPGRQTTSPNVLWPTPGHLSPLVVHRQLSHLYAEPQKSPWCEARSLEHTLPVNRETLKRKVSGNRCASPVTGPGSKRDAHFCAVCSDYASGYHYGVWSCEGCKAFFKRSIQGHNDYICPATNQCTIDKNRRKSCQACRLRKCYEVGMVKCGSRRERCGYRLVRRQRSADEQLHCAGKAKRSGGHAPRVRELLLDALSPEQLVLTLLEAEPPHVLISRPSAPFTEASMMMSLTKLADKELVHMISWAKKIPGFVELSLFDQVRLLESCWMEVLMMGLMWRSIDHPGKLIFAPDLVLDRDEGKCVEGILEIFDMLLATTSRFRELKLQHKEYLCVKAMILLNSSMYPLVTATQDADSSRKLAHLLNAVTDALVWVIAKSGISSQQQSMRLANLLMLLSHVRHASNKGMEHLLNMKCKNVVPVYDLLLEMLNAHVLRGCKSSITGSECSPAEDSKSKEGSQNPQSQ
# Assay Protocol: qHTS assay to identify small molecule antagonists of the estrogen receptor beta (ER-beta) signaling pathway (AID 1259378)
# Experimental Conditions: ER-beta-UAS-bla HEK293T, beta-lactamase FRET ratio, 16 h; series mostly up to 92.4 µM
Records with an inconclusive call do not appear. Activity calls are given as the source filed them. Calls follow the shape of the dose curve; as a rule, active = well fitted inhibition curve with a large enough effect in the signal ratio in the repeat runs (not every such curve was filed as active); inconclusive = weak or mixed curves, or effect the other way; inactive = no such curve, though single readings can be large or run the other way; the % refers to the signal ratio.
Readout Kind: outcome

Example results:
Cc1ccc(N)cc1Cl | inactive
BrCCBr | inactive
Clc1ccccc1Cl | inactive
C1CC2OC2CC1C1CO1 (stereo not drawn) | inactive
CN(N=O)c1ccccc1 | inactive
COC(=O)c1ccccc1N | inactive

Exam item: Record request: outcome value, item C#CCN(C)[C@H](C)Cc1ccccc1
Marked response: inactive

Exam item: Fill blank: measured outcome of the molecule NCCc1ccc(O)cc1 is ____.
Marked response: inactive

Exam item: Could you share which outcome value was measured for ClCCBr ?
Marked response: inactive

Exam item: Entry CCCCN(CC)C(=O)SCCC : reported outcome = ?
Marked response: inactive

Exam item: outcome for Cc1ccccc1O ?
Marked response: inactive

----------
# Assay Protocol: qHTS assay to test for compound auto fluorescence at 590 nm (red) in HepG2 cells (AID 720674)
# Experimental Conditions: HepG2 autofluorescence, red 540/590 nm, 1 h; series mostly up to 91.3 µM
Calls of active or inactive are those of the source. The call rests on the fitted dose curve; in most records, active means well fitted curve in the direction sought with a large enough effect in the repeat runs; inconclusive means weak or mixed curves; inactive means flat fitted curve, though single readings scatter.
Readout Kind: outcome

Clc1cccc(Cl)c1Cl | inactive
COC(=O)c1ccccc1C(=O)OC | inactive
CCCCN(CC)C(=O)SCCC | inactive

----------
# Assay Protocol: qHTS assay to identify small molecule agonists of the TGF-beta/Smad signaling pathway (AID 1346859)
# Experimental Conditions: SBE-bla HEK293T, TGF-beta/Smad beta-lactamase reporter, 5 h; series mostly up to 76.8 µM
Results filed as inconclusive are left out. Calls of active or inactive are those of the source. The call rests on the fitted dose curve; in most records, active means well fitted activation curve with a large enough effect in the signal ratio in the repeat runs (not every such curve was filed as active); inconclusive means weak or mixed curves; inactive means flat fitted curve, though single readings scatter; the % refers to the signal ratio.
Readout Kind: outcome

CN1C(=O)CN=C(c2ccccc2)c2cc(Cl)ccc21 | inactive
CN(C)N=O | inactive
CC(C)(C)C(O)(CCc1ccc(Cl)cc1)Cn1cncn1 (configuration not stated) | inactive
O=c1ccc(=O)[nH][nH]1 | inactive
CC(NC(C)(C)C)C(=O)c1cccc(Cl)c1 (configuration not stated) | inactive

Exam item: Which outcome is reported for this compound? Cc1[nH]c(=O)n(C(C)(C)C)c(=O)c1Cl
Marked response: inactive

Exam item: What does the record list as outcome for Nc1ccc(Oc2ccc(N)cc2)cc1 ?
Marked response: inactive

----------
# Assay Protocol: qHTS RealTime-Glo MT Cell Viability Assay in HEK293 cells - 0 hour (AID 1224880); also: top concentration of the series differs between compounds; nearly all actives have a fitted effect of over 45% in size
# Experimental Conditions: RealTime-Glo luminescence; series mostly up to 76.8 µM
Inconclusive results are not listed. Active and inactive are the calls of the source. Calls follow the shape of the dose curve; as a rule, active = well fitted cell-killing curve with a large enough effect in the repeat runs; inconclusive = weak or mixed curves, or effect the other way; inactive = flat fitted curve, though single readings scatter.
Readout Kind: outcome

Study these solved cases before continuing.
C1CN2CCN1CC2 | inactive
COc1ccc2c3c1O[C@H]1[C@@H](O)C=C[C@H]4[C@@H](C2)N(C)CC[C@@]341 | inactive
O=c1[nH]c2ccccc2c(=O)o1 | inactive
CCOP(=S)(OCC)SCCSCC | inactive
COC(=O)NS(=O)(=O)c1ccc(N)cc1 | inactive
CNC(=O)Oc1ccccc1OC(C)C | inactive
Nc1ccc(Cc2ccc(N)cc2)cc1 | inactive
CCCC1COC(Cn2cncn2)(c2ccc(Cl)cc2Cl)O1 (centres undefined) | inactive
O=Cc1cccc(Oc2ccccc2)c1 | inactive
O=c1ccc(=O)[nH][nH]1 | inactive

Exam item: I am curious: what outcome value has been reported for NCCc1ccc(O)cc1 ?
Marked response: inactive

Exam item: Param item = COC(=O)NC(=S)Nc1ccccc1NC(=S)NC(=O)OC ; retrieve measured outcome.
Marked response: inactive

Exam item: What value of outcome has been recorded for this entry: CCOP(=S)(OCC)Oc1cnc2ccccc2n1
Marked response: inactive

Exam item: So what's the measured outcome for this one? c1ccc(OP(Oc2ccccc2)Oc2ccccc2)cc1
Marked response: inactive

----------
# Assay Protocol: qHTS assay to identify small molecule antagonists of the estrogen related receptor signaling pathway with the pleiotropic PPARgamma coactivator (PGC) from Tox21 10K library (AID 1224841); also: actives are mostly falling curves and most rising ones were filed inactive; nearly all actives have a fitted effect of over 50% in size
# Experimental Conditions: PGC/ERR reporter cell line, ONE-Glo luciferase, 18 h; series mostly up to 92.4 µM
Records with an inconclusive call do not appear. The source made the active and inactive calls. How the calls were made is not given here.
Write down one outcome, taken from true for active, false for inactive

A selection of reference data follows.
CC(C)OC(=O)Nc1ccccc1 | false
CN(C)CCO | false
Cn1cc(-c2ccccc2)c(=O)c(-c2cccc(C(F)(F)F)c2)c1 | false
CCOC(=O)c1ccccc1C(=O)OCC | false
CCC[CH2][Sn]([Cl])([Cl])[Cl] | true

As a next step, examine the compound that follows.
Exam item: I'd appreciate the recorded outcome for CC(C)OC(=O)Nc1cccc(Cl)c1 from this test.
Marked response: false

// provenance: PubChem BioAssay (Tox21)
